# protocol: yeast display, Sf9 membrane polyspecificity reagent, FACS + sequencing; frameworks hold sequencing errors
observable: polyreactivity (PSR sort gate)

INSERT INTO results (biosequence, testvalue) VALUES
  ('QVQLVESGGGLVQAGGSLRLSCAASGRNFRWYAMGWYRQAPGKERELVAAITRGDITNYADSVKGRFTISRDNAKKTVYLQMNSLKPEDTAVYYCNAQWYDIYDYWGQGTQVTVSS', 'high polyreactivity'),
  ('QVQLVESGGGLVQAGGSLRLSCAASGLIFPVYAMGWYRQAPGKEREFVASIWRGGTTYYADSVKGRFTISRDNAKNTVYLQMNSLKPEDTAVYYCAARYYPRGLVFPFTKYDYWGQGTQVTVSS', 'high polyreactivity');

###

# protocol: yeast display, Sf9 membrane polyspecificity reagent, FACS + sequencing; frameworks hold sequencing errors
observable: polyreactivity (PSR sort gate)

Check out these entries, answers already filled in.
INSERT INTO results (biosequence, testvalue) VALUES
  ('QVQLVESGGGLVQAGGSLRLSCAPSGCTLGAYAMGWYRQAPGKVRELVADISSRGASTYYEDSVKGRFTISRDHAKNTVYIQMNSLKPEDTAVYDCARAVYIWYGYGYFPEYEYWGQGTQVTVSS', 'low polyreactivity'),
  ('QVQLVESGGGLVQAGGSLRLSCAASGTTFVYYAMVWYRQAPGKERYLVAAITWNGGSTYYADSVKGRFTISRDNAKNTVYFQMNSLKPEDTAVYYCNAAFRAGAVYGYYWGQGTQVTVSS', 'high polyreactivity'),
  ('QVQLVESGGGLVQAGGSLRLSCAASGSIFYYYAMGWYRQAPGKERELVADITRDCGTTYYADSVKGRFTISRDNAKNTVYLQMNSLKPEDTAVYYCNARSIVFDWSAGRAKMDYWGQGTQVTVSS', 'low polyreactivity'),
  ('QVQLVESGGGLVQAGGSLRLSCAASGSIFIGNAMGWYRQAPGKERELVAVISKGGGRTYYADSVKGRFTISRDNAKNTVYLQMNSLKPEDSAVYYCNTRNPHRGDYWGQGTQVTVSS', 'high polyreactivity'),
  ('QVQLVESGGGLVQAGGSLRLSCAASGIIFDDYAMGWYRQAPGKERELVAAITTSGGRTYYADSVKGRFTISRDNAKNTVYLQMNSLKPEDTAVYYCATRRGRAYRWMNYWGQGTQVTVSS', 'high polyreactivity'),
  ('QVQLVDSGGGLVQAGGSLRLSCAASGFTIYANAMGWYRQAPGKERELVAAITSSSGRTYYADSVKGRFTISRDNAKNTVYLQMNSLIPEETAVYYCAARWSPYDYWGQGTQVTVSS', 'low polyreactivity'),
  ('QVQLVESGGGLVQAGGSLRLSCAASGRIFVDYAMGWYRQAPGKERELVAAITRSGDRTYYADSVKGRFTISRDNAKNTVYLQMNSLKPEDTAVYYCATDYPGYDWGQGTQVTVSS', 'low polyreactivity'),
  ('QVQLVESGGGLVQAGGSLRLSCAASGIILSLYAMGWYRQAPGKERELVATIRFSGGSTYYADSVKGRFTISRDNAKNTVYLQMNSLKPEDTAVYYCNKHLATTFTVSRFDYWGQGTQVTVSS', 'low polyreactivity'),
  ('QVQLVESGGGLVQAGGSLRLSCAASGSTFQYNAMGWYRQAPGKEREFVAAITNGGGSTYYADSVKGRFTISRDNAKNTVYLQMNSLKPEDTAVYYCNARFRYARYSQRYDYWGQGTQVTVSS', 'high polyreactivity'),
  ('QVQLVESGGGLVQAGCSGSLSCAASGRIFQRNSMGWYRQAPGKEREFVAAITKSGGGTYADSVKGRFTISRDNAKNTVYLQMNSLKPEDTAVYYCNVVPVWRPYSLINWQKHFGYWGQGTQVTVSS', 'high polyreactivity');

Now consider a different sequence.
-- ask Please report the recorded polyreactivity (PSR sort gate) for QVQLVESGGGLVQAGCSLRISCAASGFTFAHNEMGWSRQAPGKERELVAAISSRGGRTFYADSVKGRFTISRDNAKKTVYLQMNSLKPEDTAVDYCNRVRSVQYDYWGQGSQVTVSS .
-- reply high polyreactivity
